B1: 5KPH (parent)
chain: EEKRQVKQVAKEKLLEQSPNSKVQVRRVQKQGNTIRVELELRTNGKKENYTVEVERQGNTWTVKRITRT

# Variants of: B1
# methodNotes: folding stability dG (cDNA display proteolysis); higher = more stable
# measurementContext: PBS, room temperature

{"residueString": "EEKRQVKQVAKEKLLEQSPNSKVQVRRVQKQGNTIRVELYLRTNGKKENYTVEVERQGNTWTVKRITRT [E40Y]", "folding stability dG / kcal/mol": 3.89}
{"residueString": "EEKRQVKQVAKEKLLEQSPNSKVQVRRVQKQGNTIRVELEFRTNGKKENYTVEVERQGNTWTVKRITRT [L41F]", "folding stability dG / kcal/mol": 2.69}
{"residueString": "EEKRQVKQVAKEKLLEQSPNSKVQVRMVQKQGNTIRVELELRTNGKKENYTVEVERQGNTWTVKRITRT [R27M]", "folding stability dG / kcal/mol": 3.43}
{"residueString": "EEWRQVKQVAKEKLLEQSPNSKVQVRRVQKQGNTIRVELELRTNGKKENYTVEVERQGNTWTVKRITRT [K3W]", "folding stability dG / kcal/mol": 4.88}
{"residueString": "EEKRQVKQVAKEKLLEQSPNSKVQVRRVQKQGNTIRVELELRTNGKKENYTVEVERQGNTWTVERITRT [K64E]", "folding stability dG / kcal/mol": 2.86}
{"residueString": "EEKRQVKQVAKEKLLNQSPNSKVQVRRVQKQGNTIRVELELRTNGKKENYTVEVERQGNTWTVKRITRT [E16N]", "folding stability dG / kcal/mol": 3.21}
{"residueString": "EEKRQVKQVAKEKLLEQSPNSKVQVRRVQKQGNTIRVELELRTNGKKENYTCEVERQGNTWTVKRITRT [V52C]", "folding stability dG / kcal/mol": 2.92}
{"residueString": "EEKRQVKQVAKEKLLEQSPNSKVQVRRVQKQGNTIRVELELRTAGKKENYTVEVERQGNTWTVKRITRT [N44A]", "folding stability dG / kcal/mol": 3.81}
{"residueString": "EEKRQVKQVAKEKLLEQSPNSQVQVRRVQKQGNTIRVELELRTNGKKENYTVEVERQGNTWTVKRITRT [K22Q]", "folding stability dG / kcal/mol": 4.05}
{"residueString": "EEKRQVKQVAKEKLLEQSPNSKVQVRRVQKQGNTIRVELELRTNGKKENYTVEVERDGNTWTVKRITRT [Q57D]", "folding stability dG / kcal/mol": 4.07}
{"residueString": "EEKRQVKQVAKEKLLEQSPNSKVQNRRVQKQGNTIRVELELRTNGKKENYTVEVERQGNTWTVKRITRT [V25N]", "folding stability dG / kcal/mol": 1.72}
{"residueString": "EEKRQVKQVAKEKLLEQSPNSKVQVRRVQKQGNTIRVELELRTNGKKENYTVEVERQGPTWTVKRITRT [N59P]", "folding stability dG / kcal/mol": 3.84}
{"residueString": "EEKRQVKQVAKEKLLEQSPNSKVQVRRQQKQGNTIRVELELRTNGKKENYTVEVERQGNTWTVKRITRT [V28Q]", "folding stability dG / kcal/mol": 2.53}
{"residueString": "EEKRQVKQVAKEKLLEQSPNSKVQVRRVQKQGNTIRFELELRTNGKKENYTVEVERQGNTWTVKRITRT [V37F]", "folding stability dG / kcal/mol": 2.39}
{"residueString": "EEKRQVKQVAKESLLEQSPNSKVQVRRVQKQGNTIRVELELRTNGKKENYTVEVERQGNTWTVKRITRT [K13S]", "folding stability dG / kcal/mol": 3.66}
{"residueString": "EEKRQVKQVAKWKLLEQSPNSKVQVRRVQKQGNTIRVELELRTNGKKENYTVEVERQGNTWTVKRITRT [E12W]", "folding stability dG / kcal/mol": 2.92}
{"residueString": "EEKRQVKQVAKEKLLEQSPNSKVQVRRVQKKGNTIRVELELRTNGKKENYTVEVERQGNTWTVKRITRT [Q31K]", "folding stability dG / kcal/mol": 3.83}
{"residueString": "EEKRQVKQVAKEKLLEQSPNSKVQVRRVQKQGNTIRVELELRTNGKKENPTVEVERQGNTWTVKRITRT [Y50P]", "folding stability dG / kcal/mol": -0.674}
{"residueString": "EEKRQVKQVAKEKLLEQSPNSKVQVRRVQKQGNTIRVELELRTNGKKNNYTVEVERQGNTWTVKRITRT [E48N]", "folding stability dG / kcal/mol": 3.08}
{"residueString": "EEKRQVKQVAKEKLLEQSPNSKVQVRRVQKQGNTIRVELELRTNGKKENYTVEVERQGNTWTVKEITRT [R65E]", "folding stability dG / kcal/mol": 3.61}
{"residueString": "EEKRIVKQVAKEKLLEQSPNSKVQVRRVQKQGNTIRVELELRTNGKKENYTVEVERQGNTWTVKRITRT [Q5I]", "folding stability dG / kcal/mol": 3.95}
{"residueString": "EEKRQVKQVAKEKLLEQSPNSKVQVRRVDKQGNTIRVELELRTNGKKENYTVEVERQGNTWTVKRITRT [Q29D]", "folding stability dG / kcal/mol": 3.75}
{"residueString": "EEKRQVKQVAKEKLLEQSPNSKVQVRRVQKQGNTIRVELELRNNGKKENYTVEVERQGNTWTVKRITRT [T43N]", "folding stability dG / kcal/mol": 3.87}
{"residueString": "EEKRQVKQVAKEKLLEQSPNSKVQVRRVQKQGNTIRVELELRTNGKKENYTVEVERQGNTVTVKRITRT [W61V]", "folding stability dG / kcal/mol": 2.9}
{"residueString": "EEKRQVKAVAKEKLLEQSPNSKVQVRRVQKQGNTIRVELELRTNGKKENYTVEVERQGNTWTVKRITRT [Q8A]", "folding stability dG / kcal/mol": 3.76}
{"residueString": "EEKRQVKQVAKEKLLEQSPNSKVQVRRVQKQGNTIRVELELRTNGKKENYTVEVERQGNTWTVKRITMT [R68M]", "folding stability dG / kcal/mol": 3.95}
{"residueString": "EEKRQVKQVAKEKLLEQSPNSKVQVRRVQKQGNTIRVELELRTNGKKENYTVEVERQENTWTVKRITRT [G58E]", "folding stability dG / kcal/mol": 3.7}
{"residueString": "EEKRQVKQVAKEKLLEQSPNSKVQVRRVQKQGNTIRVELELRTNGKKENYTVEVERQGWTWTVKRITRT [N59W]", "folding stability dG / kcal/mol": 3.5}
{"residueString": "EERRQVKQVAKEKLLEQSPNSKVQVRRVQKQGNTIRVELELRTNGKKENYTVEVERQGNTWTVKRITRT [K3R]", "folding stability dG / kcal/mol": 4.07}
{"residueString": "EEKRQVKQVAKEKLLEQSPNSKVQVRRVQKQGNTIRVELELRTNGKKENYTVEVERQGNTWTVKRITST [R68S]", "folding stability dG / kcal/mol": 3.21}
{"residueString": "EEKRQVKQVAKEKLLEQSPNSKVQVRYVQKQGNTIRVELELRTNGKKENYTVEVERQGNTWTVKRITRT [R27Y]", "folding stability dG / kcal/mol": 3.72}
{"residueString": "EEKRQVKQVAKEKLCEQSPNSKVQVRRVQKQGNTIRVELELRTNGKKENYTVEVERQGNTWTVKRITRT [L15C]", "folding stability dG / kcal/mol": 3.13}
{"residueString": "EEKRQVKQVAKEKLLEQSPNSKVQVRRVQKQGNTIRVELELRTNGKKENYTVHVERQGNTWTVKRITRT [E53H]", "folding stability dG / kcal/mol": 3.47}
{"residueString": "EEKRQVKQVAKEKLLEQSPNSKVQVRRVQKQINTIRVELELRTNGKKENYTVEVERQGNTWTVKRITRT [G32I]", "folding stability dG / kcal/mol": 2.67}
{"residueString": "EEKRQVKQVAKEKLLEQSPNSKVQVRRVQKQGNTIRVELELRTNGDKENYTVEVERQGNTWTVKRITRT [K46D]", "folding stability dG / kcal/mol": 3.43}
{"residueString": "EEKRQVKQVAKETLLEQSPNSKVQVRRVQKQGNTIRVELELRTNGKKENYTVEVERQGNTWTVKRITRT [K13T]", "folding stability dG / kcal/mol": 3.78}
{"residueString": "EEKRQVKQVAKEKLLEQSPNSKVQVRRVQKQGNTIRVELFLRTNGKKENYTVEVERQGNTWTVKRITRT [E40F]", "folding stability dG / kcal/mol": 3.81}
{"residueString": "EEKRQVKQVAKEKLLEQSPNSKVQVRRVQKQGNTIRVELELKTNGKKENYTVEVERQGNTWTVKRITRT [R42K]", "folding stability dG / kcal/mol": 3.57}
{"residueString": "EEKRQVKQVAKEKLLEQSPNSKVQVRRVQKQGNTIRVELELRTNGKKEYYTVEVERQGNTWTVKRITRT [N49Y]", "folding stability dG / kcal/mol": 4.3}
{"residueString": "EEKRQVKQVAKEKLLEQSPNSKVQVRRVQRQGNTIRVELELRTNGKKENYTVEVERQGNTWTVKRITRT [K30R]", "folding stability dG / kcal/mol": 4}
{"residueString": "EEKRQVKQAAKEKLLEQSPNSKVQVRRVQKQGNTIRVELELRTNGKKENYTVEVERQGNTWTVKRITRT [V9A]", "folding stability dG / kcal/mol": 3.39}
